Kindly supply the reported reduction of Ni(II)-protoporphyrin (IX) Soret band (specific demetallation) values for the records listed here.
- test protocol: UV-VIS screening of binding and demetallation of Ni(II)-protoporphyrin (IX)
- Format: biochemical
- condition set: purified protein, 50 μM porphyrin, 24 hrs, room temperature
# value in %; strip the unit string

Record request: reduction of Ni(II)-protoporphyrin (IX) Soret band (specific demetallation) value, item HypA: nickel chaperone from H. pylori, SEQ ID NO 1, His-tagged, expressed in E. coli (protein, listed as Bradyrhizobium japonicum, His-tag) MCTVCGCSDGKASIEHAHDHHHDHGHDHDHGHDGHHHHHHGHDQDHHHHHDHAHGDAGLLDCGANPAGQKITGMSSDRIIQVERDILGKNDRLAADNRARFRADEVLAFNLVSSPGAGKTSLLVRAVSELKDSFAIGVIEGDQQTSNDAERIRATGVPAIQVNTGKGCHLDAAMVGEAYDRLPWLNGGLLFIENVGNLVCPAAFDLGEACKIVVFSTTEGEDKPLKYPDMFAASSLMLINKIDLASVLDFDLARTIEYARRVNPKIEVLTLSARTGEGFAAFYAWIRKRMAATTPAAMTAAE
59

Fill in the blank: the reported reduction of Ni(II)-protoporphyrin (IX) Soret band (specific demetallation) of B. japonicum HypB: nickel chaperone HypB from B. japonicum, SEQ ID NO 3 (protein, listed as Helicobacter pylori) MHEYSVVSSLIALCEEHAKKNQAHKIERVVVGIGERSAMDKSLFVSAFETFREESLVCKDAVLDIVDEKVELECKDCSHVFKPNALDYGVCEKCHSKNVVITQGNEMRLLSLEMLAE is ____.
99

Look up reduction of Ni(II)-protoporphyrin (IX) Soret band (specific demetallation): UreE: nickel chaperone from E. aerogenes, SEQ ID NO 5 (protein, Enterobacter aerogenes) MLYLTQRLEIPAAATASVTLPIDVRVKSRVKVTLNDGRDAGLLLPRGLLLRGGDVLSNEEGTEFVQVIAADEEVSVVRCDDPFMLAKACYHLGNRHVPLQIMPGELRYHHDHVLDDMLRQFGLTVTFGQLPFEPEAGAYASESHGHHHAHHDHHAHSH
17

# query: reduction of Ni(II)-protoporphyrin (IX) Soret band (specific demetallation) of entry NikR: metalloregulator from H. pylori, SEQ ID NO 7 (protein, listed as Escherichia coli) MRLLHTMLRVGDLQRSIDFYTKVLGMKLLRTSENPEYKYSLAFVGYGPETEEAVIELTYNWGVDKYELGTAYGHIALSVDNAAEACEKIRQNGGNVTREAGPVKGGTTVIAFVEDPDGYKIELIEEKDAGRGLGN
56

Origin of measurements: patent US20190177400A1
